- condition: in acetonitrile, 308.15 K
measurementLabel: solubility (mole fraction)

- CC(C)[C@H](N)C(=O)O: 8.2e-05

====

- condition: in 1,4-dioxane, 288.15 K
measurementLabel: solubility (mole fraction)

* CC(C)[C@H](N)C(=O)O | 6.7e-05

====

- condition: in acetone, 308.15 K
measurementLabel: solubility (mole fraction)

• CC(C)[C@H](N)C(=O)O = 0.000132

====

- condition: in water, 293.15 K
measurementLabel: solubility (mole fraction)

* CC(C)[C@H](N)C(=O)O | 0.00937

====

- condition: in ethanol, 308.15 K
measurementLabel: solubility (mole fraction)

- CC(C)[C@H](N)C(=O)O: 0.00032

src = BigSolDB 2.1
